Hey, just so you know, these numbers are from patent US10287283B2.

assay: Aqueous solubility; type: physicochemical; conditions: thermodynamic from solid; water, ambient pH, room temperature; read-out: Solubility in (mg/mL) water at ambient pH, at room temperature
Structures can show the parent of a compound that is named as a salt.
measured.property: solubility (mg/mL)
The figure you give is taken to be in mg/mL; do not add the unit.

input: Entry O=C1N/C(=N\C(=O)C2CCNCC2)S/C1=C\c1ccc(-c2ccccc2[N+](=O)[O-])o1 [Compound 16, hydrochloride] : reported solubility = ?
output: 0.18

input: Entry CN1CCN(CC(=O)/N=C2\NC(=O)/C(=C/c3ccc(-c4ccccc4[N+](=O)[O-])o3)S2)CC1 [Compound 8, dihydrochloride] : reported solubility = ?
output: 3.3

input: Entry O=C(CN1CCOCC1)/N=C1\NC(=O)/C(=C/c2ccc(-c3ccccc3[N+](=O)[O-])o2)S1 : reported solubility = ?
output: 0.1

input: Entry CN(C)CC(=O)/N=C1\NC(=O)/C(=C/c2ccc(-c3ccccc3[N+](=O)[O-])o2)S1 [Compound 12, hydrochloride] : reported solubility = ?
output: 10
